Every entry's value here was drawn from ChEMBL document CHEMBL5058577.

# System: HEK-293T
# Assay: Multiplex assay against HEK293T
# Format: toxicity, cell-based
# Assay conditions: human, 24 h, 1 µM, compound concentration 1 uM, replicate 1
With a cut-off of 9%, any Population Fragmented Nuclei (%) strictly below it is called met; any Population Fragmented Nuclei (%) meeting it or above is called not met.

• COCCCN1CCC(NC(=O)c2cc(Cl)c(N)c3c2OCC3)CC1 [PRUCALOPRIDE] = not met
• C[C@@H]1CC(=O)Nc2cccc(-c3ccc4c(c3)c(-c3cnn(C)c3)nn4C)c2N1 = not met
• COc1ccc2[nH]c(I)c(CCNC(C)=O)c2c1 = met
• N[C@](CC1c2ccccc2Oc2ccccc21)(C(=O)O)[C@H]1C[C@@H]1C(=O)O = met
• Cn1cc(C(=O)OCC2CCN(CCNS(C)(=O)=O)CC2)c2ccccc21 = met
• COCCn1c(C)c(C)s/c1=N\C(=O)C1C(C)(C)C1(C)C = met
• Cl.Cl.OCCOCCN1CCN(C(c2ccccc2)c2ccc(Cl)cc2)CC1 (centres undefined) [HYDROXYZINE HYDROCHLORIDE] = not met
• COc1c(Nc2ccc(S(C)(=O)=O)nc2C)ncnc1OC1CCN(C(=O)OC(C)C)CC1 = met
• OCCCNc1cc(-c2ccnc(Nc3cccc(Cl)c3)n2)ccn1 = not met
• Cc1c(Cc2ccc3ccccc3n2)c2cc(F)ccc2n1CC(=O)O = not met
• CC(C)C[C@H](CO)Nc1nc(S[C@@H](C)c2ccccc2)nc2nc(N)sc12 = met

###

# Tested on: U2OS
# Assay: Multiplex assay against U2OS
# Format: toxicity, cell-based
# Assay conditions: human, 12 h, 1 µM, compound concentration 1 uM, replicate 1
Value type: Population Hoechst High Intensity Objects (%)

* CC(C)(C)c1ccc(CSc2cnn(C(C)(C)C)c(=O)c2Cl)cc1 | 3%
* COCCCN1CCC(NC(=O)c2cc(Cl)c(N)c3c2OCC3)CC1 [PRUCALOPRIDE] | 1%
* COc1cc2nc(N3CCN(C(=O)c4ccco4)CC3)nc(N)c2cc1OC.Cl [PRAZOSIN HYDROCHLORIDE] | 2%
* COc1cc(Nc2ncc3c(n2)-c2ccc(Cl)cc2C(c2c(F)cccc2OC)=NC3)ccc1C(=O)O | 1%
* Cc1nn(C)c2nc(NNC(=O)Nc3cc(Cl)nc(Cl)c3)cc(C(C)C)c12 | 1%
* C[C@@H]1CC(=O)Nc2cccc(-c3ccc4c(c3)c(-c3cnn(C)c3)nn4C)c2N1 | 1%
* COc1ccc2c(c1OCc1ccccc1)C[C@@H](C(=O)O)N(C(=O)C(c1ccccc1)c1ccccc1)C2 | 2%
* O=C(NCCNCC(O)COc1ccc(O)cc1)N1CCOCC1.O=C(NCCNCC(O)COc1ccc(O)cc1)N1CCOCC1.O=C(O)/C=C/C(=O)O (centres undefined) [XAMOTEROL FUMARATE] | 2%
* Nc1nc(-c2ccco2)c2cnn(Cc3ccccc3F)c2n1 | 1%

###

# Test system: U2OS
# Assay: Multiplex assay against U2OS
# Format: toxicity, cell-based
# Assay conditions: human, 24 h, 10 µM, compound concentration 10 uM, replicate 2
Overview of reported Population Apoptotic (%) across a group of compounds:
Value type: Population Apoptotic (%)

• CCCCC[C@H](O)/C=C/[C@H]1[C@H](O)CC(=O)[C@@H]1CCCCCCC(=O)O [ALPROSTADIL] = 100
• COCCn1c(C)c(C)s/c1=N\C(=O)C1C(C)(C)C1(C)C = 88
• N[C@](CC1c2ccccc2Oc2ccccc21)(C(=O)O)[C@H]1C[C@@H]1C(=O)O = 81
• O=C(O)CCC/C=C\CC1C(O)CC(O)C1/C=C/C(O)COc1cccc(Cl)c1 (stereo not drawn) [CLOPROSTENOL] = 70
• COc1ccc2[nH]c(I)c(CCNC(C)=O)c2c1 [IODOMELATONIN] = 88
• COc1ccc2c(c1OCc1ccccc1)C[C@@H](C(=O)O)N(C(=O)C(c1ccccc1)c1ccccc1)C2 [OLODANRIGAN] = 50
• Cc1cc(-c2ccc3c(c2)CC[C@H]3N2CC3(CCN(C(=O)Cc4cn5cc(C)sc5n4)CC3)C2)ncn1 [PF-5190457] = 84
• O=c1ccc2ccc(OCCCCN3CCN(c4cccc5sccc45)CC3)cc2[nH]1 [BREXPIPRAZOLE] = 91
